- tgt: APOL1
- setup-conditions: ASO, A431, 0.0156 µM
After the bases stand the sugars from the 5' end (letter, count) and the backbone: PS all phosphorothioate, else s phosphorothioate and o phosphodiester by linkage. Methylation of C is not given here. e = 2'-O-(2-methoxyethyl) (MOE); k = constrained ethyl (cEt); d = 2'-deoxy (DNA)
readout-label: target mRNA inhibition
I'd appreciate it if you wrote the number followed by its unit.

Here are 2 sequences together with their reported answers.
1) CGTCAATATATTCTTT (sugars kkddddkekekddddd, PS) | 20%
2) CGTCAATATATTCTTT (sugars kkkddddkdkdkdddd, PS) | 23%

Now for the sequence whose target mRNA inhibition we want.
Query: Specify measured target mRNA inhibition for TCCGTCAATATATTCT (sugars kkddddekekeddddd, PS) .
Reply: 33%
